# Measured on: Xanthine dehydrogenase/oxidase (Homo sapiens)
# Sequence (P47989 whole entry): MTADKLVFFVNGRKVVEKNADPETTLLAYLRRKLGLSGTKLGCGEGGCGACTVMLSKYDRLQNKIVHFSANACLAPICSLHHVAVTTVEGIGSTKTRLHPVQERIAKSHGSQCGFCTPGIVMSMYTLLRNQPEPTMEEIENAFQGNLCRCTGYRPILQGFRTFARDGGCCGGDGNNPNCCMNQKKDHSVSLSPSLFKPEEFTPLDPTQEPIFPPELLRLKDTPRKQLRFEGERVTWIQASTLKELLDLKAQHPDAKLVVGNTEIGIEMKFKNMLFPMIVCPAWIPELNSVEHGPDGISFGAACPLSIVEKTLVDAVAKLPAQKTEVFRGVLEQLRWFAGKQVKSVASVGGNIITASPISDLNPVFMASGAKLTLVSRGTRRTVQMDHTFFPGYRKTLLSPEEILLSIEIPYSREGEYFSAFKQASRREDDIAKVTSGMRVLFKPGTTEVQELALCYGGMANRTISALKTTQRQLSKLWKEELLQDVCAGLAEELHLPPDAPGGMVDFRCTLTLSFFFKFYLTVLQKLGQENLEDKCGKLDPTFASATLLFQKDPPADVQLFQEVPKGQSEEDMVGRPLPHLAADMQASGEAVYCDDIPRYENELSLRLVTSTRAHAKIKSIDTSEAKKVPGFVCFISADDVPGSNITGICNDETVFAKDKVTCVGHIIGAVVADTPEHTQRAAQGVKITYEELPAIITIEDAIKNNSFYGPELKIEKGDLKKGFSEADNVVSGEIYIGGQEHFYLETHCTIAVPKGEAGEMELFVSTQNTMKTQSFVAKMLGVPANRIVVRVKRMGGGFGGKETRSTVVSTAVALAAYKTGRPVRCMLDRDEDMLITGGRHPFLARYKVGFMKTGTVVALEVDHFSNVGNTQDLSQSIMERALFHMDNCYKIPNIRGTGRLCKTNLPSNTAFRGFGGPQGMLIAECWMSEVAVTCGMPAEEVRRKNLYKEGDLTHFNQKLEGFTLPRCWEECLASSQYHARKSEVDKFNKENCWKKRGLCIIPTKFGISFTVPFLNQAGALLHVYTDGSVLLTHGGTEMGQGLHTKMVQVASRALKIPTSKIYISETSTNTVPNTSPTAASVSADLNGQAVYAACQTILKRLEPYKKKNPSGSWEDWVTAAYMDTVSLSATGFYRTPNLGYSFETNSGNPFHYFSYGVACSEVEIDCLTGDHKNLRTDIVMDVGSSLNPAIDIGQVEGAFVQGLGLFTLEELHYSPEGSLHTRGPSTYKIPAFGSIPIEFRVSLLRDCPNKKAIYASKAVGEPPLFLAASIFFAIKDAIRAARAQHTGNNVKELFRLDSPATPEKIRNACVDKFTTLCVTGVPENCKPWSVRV

- Compound: "CCC(C)C(=O)C1C(=O)[C@@](C)(CC=C(C)C)C(=O)[C@@]2(C[C@H]3[C@H](CC[C@@]3(C)O)[C@](C)(O)C2)C1=O (stereo partly specified)"
  Measured on: "Xanthine dehydrogenase/oxidase (Homo sapiens)"
  Output unit: "µM"
  IC50: 42.1
